# Lookup of reported IC50 keyed by entry
- Tested on: A375 cells
- experimental details: A375 Crystal Violet (CV) Proliferation Assay
- Type: cell-based
- experimental setup: A375 human melanoma cells, mutant BRAF V600E, crystal violet staining, 4 days
experimental endpoint: IC50 (nM)

[
  {
    "compound": "Cn1c(Nc2ccc(I)cc2F)c(NS(=O)(=O)C2(CC(O)CO)CC2)ccc1=O (single isomer, unassigned) [Example 6A]",
    "assay target": "A375 cells",
    "experimental endpoint": "IC50",
    "measured number": 17.8
  },
  {
    "compound": "Cn1c(Nc2ccc(I)cc2F)c(NS(=O)(=O)C2(CC(O)CO)CC2)ccc1=O (single isomer, unassigned) [Example 6B]",
    "assay target": "A375 cells",
    "experimental endpoint": "IC50",
    "measured number": 7.74
  }
]

###

- Test system: A375 cells
- experimental details: A375 Crystal Violet (CV) Proliferation Assay
- Format: cell-based
- experimental setup: Homo sapiens, A-375, 96 h, A375 human melanoma cells, mutant BRAF V600E, crystal violet staining, 4 days
Reported IC50 by item:

[
  {
    "molecule": "Cn1c(Nc2ccc(I)cc2F)c(NS(=O)(=O)C2CC2)cc(F)c1=O",
    "u": "nM",
    "IC50": 26.6
  },
  {
    "molecule": "Cc1cc(NS(=O)(=O)C2(CCO)CC2)c(Nc2ccc(I)cc2F)n(C)c1=O",
    "u": "nM",
    "IC50": 15
  },
  {
    "molecule": "Cn1c(Nc2ccc(I)cc2F)c(NS(=O)(=O)C2(CC(O)CO)CC2)cc(F)c1=O (racemic)",
    "u": "nM",
    "IC50": 25.5
  },
  {
    "molecule": "Cc1cc(NS(=O)(=O)C2(CC(O)CO)CC2)c(Nc2ccc(I)cc2F)n(C)c1=O (racemic)",
    "u": "nM",
    "IC50": 17
  }
]

###

Reported pIC50 is given for each of the following compounds.
- assay target: UniProt Q02750
- Sequence (Q02750 whole entry): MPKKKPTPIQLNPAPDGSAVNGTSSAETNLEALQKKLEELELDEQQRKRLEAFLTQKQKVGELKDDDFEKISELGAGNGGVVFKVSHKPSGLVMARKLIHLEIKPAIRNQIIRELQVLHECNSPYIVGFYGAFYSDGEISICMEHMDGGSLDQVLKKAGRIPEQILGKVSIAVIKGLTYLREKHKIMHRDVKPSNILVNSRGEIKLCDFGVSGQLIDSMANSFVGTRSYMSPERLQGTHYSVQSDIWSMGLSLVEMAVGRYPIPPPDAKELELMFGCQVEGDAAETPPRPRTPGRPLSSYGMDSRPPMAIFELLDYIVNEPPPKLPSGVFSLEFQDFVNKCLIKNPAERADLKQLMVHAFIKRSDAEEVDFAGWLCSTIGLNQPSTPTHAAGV
pIC50: −log10 of the molar value.

[
  {
    "compound": "Cn1c(Nc2ccc(I)cc2F)c(NS(=O)(=O)C2(CC(O)CO)CC2)cc(F)c1=O (racemic)",
    "assay target": "UniProt Q02750",
    "pIC50": 7.68
  },
  {
    "compound": "Cn1c(Nc2ccc(I)cc2F)c(NS(=O)(=O)C2(CCO)CC2)cc(F)c1=O",
    "assay target": "UniProt Q02750",
    "pIC50": 7.42
  },
  {
    "compound": "Cn1c(Nc2ccc(I)cc2F)c(NS(=O)(=O)C2(CC(O)CO)CC2)ccc1=O (single isomer, unassigned)",
    "assay target": "UniProt Q02750",
    "pIC50": 7.78
  }
]

###

- Tested on: A549 cells
- experimental details: A549 Cell Titer Glo (CTG) Proliferation Assay
- Type: cell-based
- experimental setup: Homo sapiens, A549, 72 h, A549 human non small cell lung cancer cells, mutant K-Ras G12S
pIC50: −log10 of the molar value.
Each entry below lists one item and its recorded pIC50 value.

[
  {
    "molecule": "Cn1c(Nc2ccc(I)cc2F)c(NS(=O)(=O)C2(CC(O)CO)CC2)cc(F)c1=O (racemic)",
    "pIC50": 6.15
  },
  {
    "molecule": "Cn1c(Nc2ccc(I)cc2F)c(NS(=O)(=O)C2CC2)cc(F)c1=O",
    "pIC50": 6.03
  },
  {
    "molecule": "Cn1c(Nc2ccc(I)cc2F)c(NS(=O)(=O)C2(CCO)CC2)cc(F)c1=O",
    "pIC50": 6.14
  },
  {
    "molecule": "Cn1c(Nc2ccc(I)cc2F)c(NS(=O)(=O)C2CC2)ccc1=O",
    "pIC50": 6.69
  },
  {
    "molecule": "Cn1c(Nc2ccc(I)cc2F)c(NS(=O)(=O)C2(CCO)CC2)ccc1=O",
    "pIC50": 6.60
  }
]

###

- Tested on: A375 cells
- experimental details: A375 Crystal Violet (CV) Proliferation Assay
- Type: cell-based
- experimental setup: Homo sapiens, A-375, 96 h, A375 human melanoma cells, mutant BRAF V600E, crystal violet staining, 4 days
experimental endpoint: IC50 (nM)

[
  {
    "compound": "Cn1c(Nc2ccc(I)cc2F)c(NS(=O)(=O)C2CC2)ccc1=O [Example 5]",
    "u": "nM",
    "measured number": 2.94
  },
  {
    "compound": "Cn1c(Nc2ccc(I)cc2F)c(NS(=O)(=O)C2(CCO)CC2)cc(F)c1=O [Example 10]",
    "u": "nM",
    "measured number": 22.9
  },
  {
    "compound": "Cn1c(Nc2ccc(I)cc2F)c(NS(=O)(=O)C2(CCO)CC2)ccc1=O [Example 7]",
    "u": "nM",
    "measured number": 4.7
  }
]

Reference for the values: patent US8673919B2
